Test system: BRCA2^-/- HCT116
assay-details: Clonogenic (colony) survival assay
Assay type: cell-based, human
assay-context: Homo sapiens, HCT-116; clonogenic survival, two experiments in triplicate; read-out: IC50(nM) HCT116 BRCA2 –/–
Task for the reader: assign each of the following molecules its reported IC50.
Report the figure in nM without appending any unit label.

Prompt line: // query IC50 value for entry Cc1cc(C(F)(F)F)cc(N2C(=O)[C@@H](O)[C@@H](O)[C@H]2C(=O)N(C)c2ccc(F)c(Cl)c2)n1 [ART812, reference compound]
Response line: 454

Prompt line: Quick one: IC50 of Nc1ccc(C#CCN(C(=O)Cc2ncc(C(F)(F)F)cc2C(F)(F)F)c2ccc(F)cc2)nn1 [RP-6685, reference compound] ?
Response line: 403

Prompt line: I have this molecule here, Cc1cccc(N(C)C(=O)[C@@H]2[C@H](O)CCN2c2nc(C)cc(C(F)(F)F)c2C#N)c1 [ART558, reference compound] , and I need its recorded IC50.
Response line: 1040
